Numbers sourced from patent US20260125382A1.

Catalogue of Enzyme degradation CDK2 (% remaining) @ 10 μM values
target: CDK2 (Homo sapiens, UniProt P24941); construct: endogenous in cells; host or cells: MDA-MB-231; assay: CDK protein degradation activity (Western blotting), CDK2; assay type: cell-based; details: MDA-MB-231 cells, 10 μM, 16 hours, Western blot
quantity: Enzyme degradation CDK2 (% remaining) @ 10 μM (%)

{"columns": ["compound", "output.unit", "numeric.value"],
 "data": [
  ["O=C1CC[C@H](N2C(=O)c3cccc(OCC(=O)N4CCC(CC(=O)N5CCN(c6ccc(Nc7ncnc8c7ncn8C7CC(NC(=O)Cc8ccccc8)C7)cc6)CC5)CC4)c3C2=O)C(=O)N1 (stereo partly shown)", "%", 10],
  ["CC(=O)N[C@H]1C[C@@H](n2cnc3c(NCC4CCN(CC5CCN(C(=O)CNc6ccc7c(c6)C(=O)N([C@H]6CCC(=O)NC6=O)C7=O)CC5)CC4)ncnc32)C1", "%", 70],
  ["O=C1CC[C@H](N2C(=O)c3cccc(NCC(=O)N4CCC(CN5CCC(CNc6ncnc7c6ncn7C6CC(NC(=O)Cc7ccccc7)C6)CC5)CC4)c3C2=O)C(=O)N1 (stereo partly shown)", "%", 50],
  ["O=C1CCC(N2C(=O)c3cccc(OCC(=O)N4CCC(CCCN5CCN(c6ccc(Nc7ncnc8c7ncn8[C@H]7C[C@@H](NC(=O)Cc8ccccc8)C7)cc6)CC5)CC4)c3C2=O)C(=O)N1 (stereo partly shown)", "%", 20],
  ["O=C1CC[C@H](N2C(=O)c3ccc(N4CCN(C5CC6(CCN(c7ccc(Nc8ncnc9c8ncn9[C@H]8C[C@@H](NC(=O)Cc9ccccc9)C8)cc7)CC6)C5)CC4)cc3C2=O)C(=O)N1", "%", 10],
  ["Cc1cccc(C(=O)N[C@H]2C[C@@H](n3cnc4c(NC5CCN(CCC6CCN(c7ccc8c(c7)C(=O)N([C@H]7CCC(=O)NC7=O)C8=O)CC6)CC5)ncnc43)C2)n1", "%", 60],
  ["Cc1cccc(C(=O)NC2CC(n3cnc4c(NCc5ccc(N6CCN(CC7CCN(c8cccc9c8C(=O)N([C@H]8CCC(=O)NC8=O)C9=O)CC7)CC6)cc5)ncnc43)C2)n1 (stereo partly shown)", "%", 80],
  ["O=C1CC[C@H](N2C(=O)c3ccc(N4CCC(CN5CCN(c6ccc(Nc7ncnc8c7ncn8C7CC(NC(=O)c8c(Cl)cccc8Cl)C7)cc6)CC5)CC4)cc3C2=O)C(=O)N1 (stereo partly shown)", "%", 20]
]}

----------
Biological target: CDK2 (Homo sapiens)
Construct: endogenous in cells; host or cells: MDA-MB-231
Experiment: CDK protein degradation activity (Western blotting), CDK2
Type: cell-based
Conditions: MDA-MB-231 cells, 10 μM, 16 hours, Western blot
Method: In order to evaluate the CDK protein degradation activity of the compounds according to the present invention, the following experiment was conducted. MDA-MB-231 cells were seeded at 5×10^5 cells per well in a 6-well plate. The next day, the compounds were treated in each well to achieve final concentrations of 100 nM, 1 μM, and 10 μM. […] Cell lysates were quantified and separated by size using sodium dodecyl sulfate-polyacrylamide gel electrophoresis (SDS-PAGE). […]
quantity: Enzyme degradation CDK2 (% remaining) @ 10 μM (%)

{"columns": ["compound", "numeric.value"],
 "data": [
  ["Cc1cccc(C(=O)NC2CC(n3cnc4c(NCCCN5CCN(CC6CCN(C(=O)CNc7ccc8c(c7)C(=O)N([C@@H]7CCC(=O)NC7=O)C8=O)CC6)CC5)ncnc43)C2)n1 (some centres unmarked)", 50],
  ["O=C1CCC(N2C(=O)c3cc(F)c(N4CCC(CN5CCC(CCNc6ncnc7c6ncn7[C@H]6C[C@@H](NC(=O)Cc7ccccc7)C6)CC5)CC4)cc3C2=O)C(=O)N1 (some centres unmarked)", 40],
  ["O=C1CC[C@H](N2C(=O)c3ccc(N4CCC(CCCN5CCN(c6ccc(Nc7ncnc8c7ncn8C7CC(NC(=O)Cc8ccccc8)C7)cc6)CC5)CC4)cc3C2=O)C(=O)N1 (some centres unmarked)", 100],
  ["O=C1CC[C@H](N2C(=O)c3ccc(N4CCN(CC=CCN5CCC6(CC5)CC(N5CCN(c7ccc(Nc8ncnc9c8ncn9C8CC(NC(=O)Cc9ccccc9)C8)cc7)CC5)C6)CC4)cc3C2=O)C(=O)N1 (some centres unmarked)", 60]
]}

----------
target: CDK2 (Homo sapiens); construct: endogenous in cells; host or cells: MDA-MB-231; assay: CDK protein degradation activity (Western blotting), CDK2; format: cell-based; details: MDA-MB-231 cells, 0.1 μM, 16 hours, Western blot
Catalogue of Enzyme degradation CDK2 (% remaining) @ 0.1 μM values
quantity: Enzyme degradation CDK2 (% remaining) @ 0.1 μM

{"columns": ["compound", "result"],
 "data": [
  ["O=C1CCC(N2C(=O)c3cccc(NCC(=O)N4CCC5(CC4)CC(N4CCC(c6ccc(Nc7ncnc8c7ncn8[C@H]7C[C@@H](NC(=O)Cc8ccccc8)C7)cc6)CC4)C5)c3C2=O)C(=O)N1 (stereo partly drawn) [Compound 294]", "10/10/10%"],
  ["O=C1CC[C@H](N2C(=O)c3ccc(N4CCC(CN5CCC(c6ccc(Nc7ncnc8c7ncn8[C@H]7C[C@@H](NC(=O)Cc8ccccc8)C7)cc6)CC5)CC4)cc3C2=O)C(=O)N1 [Compound 292]", "10/10/10%"],
  ["O=C1CC[C@H](N2C(=O)c3ccc(N4CCC(C(=O)N5CCC(CN6CCN(c7ccc(Nc8ncnc9c8ncn9C8CC(NC(=O)c9cccc(F)n9)C8)cc7)CC6)CC5)CC4)cc3C2=O)C(=O)N1 (stereo partly drawn) [Compound 467]", "40%"]
]}

----------
Molecular target: CDK9 (Homo sapiens, UniProt P50750)
Construct: endogenous in cells; host or cells: MDA-MB-231
Sequence (P50750 whole entry): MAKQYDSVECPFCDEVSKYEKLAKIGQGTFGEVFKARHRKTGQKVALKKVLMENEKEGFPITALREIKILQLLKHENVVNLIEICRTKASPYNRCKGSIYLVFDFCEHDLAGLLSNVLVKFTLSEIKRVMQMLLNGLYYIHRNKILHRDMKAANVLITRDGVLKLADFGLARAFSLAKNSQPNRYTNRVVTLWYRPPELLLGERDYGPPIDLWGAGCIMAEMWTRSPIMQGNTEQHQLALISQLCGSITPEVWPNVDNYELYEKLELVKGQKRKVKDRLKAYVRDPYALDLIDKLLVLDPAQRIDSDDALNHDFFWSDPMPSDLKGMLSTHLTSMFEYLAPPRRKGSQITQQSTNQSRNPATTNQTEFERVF
Experiment: CDK protein degradation activity (Western blotting), CDK9
Assay type: cell-based
Details: MDA-MB-231 cells, 10 μM, 16 hours, Western blot
Experimental: In order to evaluate the CDK protein degradation activity of the compounds according to the present invention, the following experiment was conducted. MDA-MB-231 cells were seeded at 5×10^5 cells per well in a 6-well plate. The next day, the compounds were treated in each well to achieve final concentrations of 100 nM, 1 μM, and 10 μM. […] Cell lysates were quantified and separated by size using sodium dodecyl sulfate-polyacrylamide gel electrophoresis (SDS-PAGE). […]
Catalogue of Enzyme degradation CDK9 (% remaining) @ 10 μM values
quantity: Enzyme degradation CDK9 (% remaining) @ 10 μM (%)

{"columns": ["compound", "test.system", "numeric.value"],
 "data": [
  ["Cc1cccc(C(=O)N[C@H]2C[C@@H](n3cnc4c(NCCCN5CCN(CC6CCN(C(=O)COc7cccc([C@@H]8CCC(=O)NC8=O)c7)CC6)CC5)ncnc43)C2)n1 [Compound 230]", "CDK9 (Homo sapiens, UniProt P50750)", 0],
  ["Cc1cccc(C(=O)N[C@H]2C[C@@H](n3cnc4c(NCc5cccc(OCCCN6CCN(C(=O)CNc7ccc8c(c7)C(=O)N([C@H]7CCC(=O)NC7=O)C8=O)CC6)c5)ncnc43)C2)n1 [Compound 102]", "CDK9 (Homo sapiens, UniProt P50750)", 10],
  ["O=C1CCN(c2coc3cc(C(=O)NC[C@H]4CC[C@H](CN5CCN(c6ccc(Nc7ncnc8c7ncn8[C@H]7C[C@@H](NC(=O)Cc8ccccc8)C7)cc6)CC5)CC4)ccc23)C(=O)N1 [Compound 199]", "CDK9 (Homo sapiens, UniProt P50750)", 30],
  ["O=C1CC[C@H](N2C(=O)c3ccc(NCC(=O)N4CCC5(CC(N6CCN(c7ccc(Nc8ncnc9c8ncn9[C@H]8C[C@@H](NC(=O)Cc9ccccc9)C8)cc7)CC6)C5)C4)cc3C2=O)C(=O)N1 (stereo partly shown) [Compound 265]", "CDK9 (Homo sapiens, UniProt P50750)", 0],
  ["Cc1cccc(C(=O)N[C@H]2C[C@@H](n3cnc4c(NC5CCN(CCC6CCN(C(=O)COc7ccc8c(c7)C(=O)N(C7CCC(=O)NC7=O)C8=O)CC6)CC5)ncnc43)C2)n1 (stereo partly shown) [Compound 31]", "CDK9 (Homo sapiens, UniProt P50750)", 0]
]}

----------
Catalogue of Enzyme degradation CDK2 (% remaining) @ 10 μM values
target: CDK2 (Homo sapiens); construct: endogenous in cells; host or cells: MDA-MB-231; test: CDK protein degradation activity (Western blotting), CDK2; format: cell-based; settings: MDA-MB-231 cells, 10 μM, 16 hours, Western blot
quantity: Enzyme degradation CDK2 (% remaining) @ 10 μM (%)

{"columns": ["compound", "numeric.value"],
 "data": [
  ["Cc1cccc(C(=O)NC2CC(n3cnc4c(NCc5cccc(N6CCN(c7cccc8c7C(=O)N([C@H]7CCC(=O)NC7=O)C8=O)CC6)c5)ncnc43)C2)n1 (some centres unmarked)", 70],
  ["O=C1CC[C@H](N2C(=O)c3ccc(N4CC(N5CCC6(CC5)CC(N5CCN(c7ccc(Nc8ncnc9c8ncn9C8CC(NC(=O)Cc9ccccc9)C8)cc7)CC5)C6)C4)cc3C2=O)C(=O)N1 (some centres unmarked)", 40],
  ["O=C1CCC(c2ccc(OCC(=O)N3CC(CN4CCC5(CC4)CC(N4CCN(c6ccc(Nc7ncnc8c7ncn8[C@H]7C[C@@H](NC(=O)Cc8ccccc8)C7)cc6)CC4)C5)C3)cc2)C(=O)N1 (some centres unmarked)", 60],
  ["O=C1CCC(N2C(=O)c3ccc(N4CCC(CN5CCC(CCNc6ncnc7c6ncn7[C@H]6C[C@@H](NC(=O)c7c(Cl)cccc7Cl)C6)CC5)CC4)cc3C2=O)C(=O)N1 (some centres unmarked)", 30],
  ["Cc1cccc(C(=O)NC2CC(n3cnc4c(Nc5ccc(N6CCN(CC7CCN(c8cccc9c8C(=O)N([C@H]8CCC(=O)NC8=O)C9=O)CC7)CC6)cc5)ncnc43)C2)n1 (some centres unmarked)", 90]
]}
